- Tested on: NCI-H1581 (Non-Small Cell Lung Carcinoma);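 also: after 72 h of two-drug dosing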
- ASSAY_METHOD_TEXT: Bliss excess, mean over the matrix (fraction); higher = more synergy
Overview of reported Bliss excess across a group of compounds:
Reply: number alone, nothing else.

Cc1cc2ncnn2cc1Nc1ncc2c(n1)n(C1CCOCC1)c(=O)n2C [AZD7648] + C=CCn1c(=O)c2cnc(Nc3ccc(N4CCN(C)CC4)cc3)nc2n1-c1cccc(C(C)(C)O)n1 [AZD1775] (first compound max 10 µM, partner max 1 µM) :: -0.0334
COc1cc2ncnc(Nc3ccc(F)c(Cl)c3)c2cc1OCCCN1CCOCC1 [Gefitinib] + CC(C)n1c(=O)n(C)c2cnc3cc(F)c(-c4ccc(OCCCN5CCCCC5)nc4)cc3c21 [AZD1390] (first compound max 10 µM, 7x7, partner max 0.3 µM) :: -0.0457

For reference, reported Bliss excess for CN(CCO)CC[C@H](CSc1ccccc1)Nc1ccc(S(=O)(=O)NC(=O)c2ccc(N3CCC([C@@H](O)c4ccccc4-c4ccc(Cl)cc4)CC3)cc2)cc1S(=O)(=O)C(F)(F)F [AZD4320] + CC(=O)O[C@H]1C(=O)[C@@]2(C)[C@H]([C@H](OC(=O)c3ccccc3)[C@]3(O)C[C@H](OC(=O)[C@H](O)[C@@H](NC(=O)c4ccccc4)c4ccccc4)C(C)=C1C3(C)C)[C@]1(OC(C)=O)CO[C@@H]1C[C@@H]2O [Paclitaxel] (first compound max 1 µM, 7x7, partner max 3 µM) stands at 0.0126

For reference, reported Bliss excess for CN(C)CCCOc1ccc(-c2ccc3ncc4c(c3c2)n(C2CCOCC2)c(=O)n4C)cn1 [AZD0156] + C=CCn1c(=O)c2cnc(Nc3ccc(N4CCN(C)CC4)cc3)nc2n1-c1cccc(C(C)(C)O)n1 [AZD1775] (first compound max 1 µM, partner max 1 µM) stands at -0.0641

For reference, reported Bliss excess for C[C@@H](c1ccc2nccn2c1)n1nnc2ncc(-c3cnn(C)c3)nc21 [Savolitinib] + Cc1c2c(nn1C)CSCc1cc(n(C)n1)CSc1cc(c3ccccc3c1)OCCCc1c(C(=O)O)n(C)c3c-2c(Cl)ccc13 [AZD5991] (first compound max 1 µM, 7x7, partner max 1 µM) stands at -0.0209

For reference, reported Bliss excess for CN(CCO)CC[C@H](CSc1ccccc1)Nc1ccc(S(=O)(=O)NC(=O)c2ccc(N3CCC([C@@H](O)c4ccccc4-c4ccc(Cl)cc4)CC3)cc2)cc1S(=O)(=O)C(F)(F)F [AZD4320] + CCN(CCO)CCCOc1ccc2c(Nc3cc(CC(=O)Nc4cccc(F)c4)[nH]n3)ncnc2c1 [AZD2811] (first compound max 1 µM, 7x7, partner max 1 µM) stands at 0.0584

###

- System: 8-MG-BA (Glioblastoma)
- ASSAY_METHOD_TEXT: combination Emax (second highest fraction inhibited in the dose matrix, 72 h); higher = more inhibition; extreme values may be limits of the assay
Overview of reported combination Emax across a group of compounds:
Reply: number alone, nothing else.

CN(CCO)CC[C@H](CSc1ccccc1)Nc1ccc(S(=O)(=O)NC(=O)c2ccc(N3CCC([C@@H](O)c4ccccc4-c4ccc(Cl)cc4)CC3)cc2)cc1S(=O)(=O)C(F)(F)F [AZD4320] + C1CN(CCC1(C(=O)N[C@@H](CCO)C2=CC=C(C=C2)Cl)N)C3=NC=NC4=C3C=CN4 [Capivasertib] (first compound max 1 µM, 7x7, partner max 3 µM) :: 0.291
CN(CCO)CC[C@H](CSc1ccccc1)Nc1ccc(S(=O)(=O)NC(=O)c2ccc(N3CCC([C@@H](O)c4ccccc4-c4ccc(Cl)cc4)CC3)cc2)cc1S(=O)(=O)C(F)(F)F [AZD4320] + C=CCn1c(=O)c2cnc(Nc3ccc(N4CCN(C)CC4)cc3)nc2n1-c1cccc(C(C)(C)O)n1 [AZD1775] (first compound max 1 µM, partner max 1 µM) :: 0.785
C=CCn1c(=O)c2cnc(Nc3ccc(N4CCN(C)CC4)cc3)nc2n1-c1cccc(C(C)(C)O)n1 [AZD1775] + O=C(c1cc(Cc2n[nH]c(=O)c3ccccc23)ccc1F)N1CCN(C(=O)C2CC2)CC1 [Olaparib] (first compound max 1 µM, partner max 10 µM) :: 0.77
CC(=O)c1c(C)c2cnc(Nc3ccc(N4CCNCC4)cn3)nc2n(C2CCCC2)c1=O [Palbociclib] + Cc1c2c(nn1C)CSCc1cc(n(C)n1)CSc1cc(c3ccccc3c1)OCCCc1c(C(=O)O)n(C)c3c-2c(Cl)ccc13 [AZD5991] (first compound max 10 µM, 7x7, partner max 1 µM) :: 0.63

In the following, a different compound is considered.
Short answer on 8-MG-BA (Glioblastoma) for CC1(C)CCC(CN2CCN(c3ccc(C(=O)NS(=O)(=O)c4ccc(NCC5CCOCC5)c([N+](=O)[O-])c4)c(Oc4cnc5[nH]ccc5c4)c3)CC2)=C(c2ccc(Cl)cc2)C1 [Venetoclax] + C[C@@H]1COCCN1C2=NC(=NC(=C2)C3(CC3)[S@](=N)(=O)C)C4=C5C=CNC5=NC=C4 [AZD6738] (first compound max 1 µM, 7x7, partner max 10 µM) , combination Emax: 0.792
